Reported GI50 values follow for various compounds
# Test system: RXF 631
# procedure.summary: NCI tumour cell line growth inhibition, 48 h
The source made the active and inactive calls. Cut-off read from the data, not from the text of the source: active = GI50 up to about 1.1 µM and inactive = higher.
assay.endpoint: GI50

{"columns": ["compound", "assay.endpoint", "result"],
 "data": [
  ["COc1ccc(C(c2ccc(C(C)C)cc(=O)c2O)c2c(O)cc3oc(-c4ccccc4)cc(=O)c3c2O)cc1 (stereo not given)", "GI50", "11.3 µM (inactive)"],
  ["CC1=C(C(=O)Nc2cccc(C(F)(F)F)c2)C(c2ccc(O)cc2)C(C(=O)Nc2cccc(C(F)(F)F)c2)=C(C)N1", "GI50", "14.8 µM (inactive)"],
  ["C[S+](C)CCOC(=O)C(=[N+]=[N-])c1ccc([N+](=O)[O-])cc1", "GI50", "> 100 µM (inactive)"],
  ["CCC1(CN(C)C)CC/C(=C\\c2ccc3c(c2)OCO3)C1=O (stereo not given)", "GI50", "> 100 µM (inactive)"],
  ["CCOC(=O)CCC(NC(=O)c1ccc(NCc2ccc3nc(-c4ccccc4)c(Cl)nc3c2)cc1)C(=O)OCC (stereo not given)", "GI50", "13.2 µM (inactive)"]
]}

====

# System: UACC-257
# procedure.summary: NCI tumour cell line growth inhibition, 48 h
The source made the active and inactive calls. Rule as the data show it: active = GI50 up to about 1.1 µM and inactive = higher.
# reported GI50; entries follow
assay.endpoint: GI50

{"columns": ["compound", "result"],
 "data": [
  ["CCCNC(=O)C(C)C1CCC2(C)C=CC(=O)C(C)=C2C1O (stereo not given)", "> 100 µM (inactive)"],
  ["CC1=CCC2CC1C(C(=O)c1c[nH]c3ccccc13)=NC2(C)C (stereo not given)", "27.4 µM (inactive)"],
  ["c1csc(-c2cc(-c3cccs3)c(-c3cccs3)s2)c1", "55.3 µM (inactive)"],
  ["COC1/C=C(C)/C=C/C(C)/C=C/C(=O)OC(/C(C)=C/C=C(\\C)CNC(=O)[C@H](CO)NC=O)C(C)/C=C/C=C/C(OC)CC/C=C(C)/C=C/C1 (stereo not given in full)", "0.0264 µM (active)"],
  ["CC1(C)N=C(N)N=C(N)N1c1ccc(CCCCc2ccc(S(=O)(=O)F)cc2Cl)c(Cl)c1", "5.56 µM (inactive)"],
  ["COC(=O)C(/C(=N/N)C(=O)Nc1cc(Cl)ccc1Cl)c1nc2ccc([N+](=O)[O-])cc2nc1O (stereo not given)", "> 100 µM (inactive)"],
  ["COc1ccc(OC)c(NS(=O)(=O)c2ccc3nc(C)n(NS(=O)(=O)c4cc(OC)ccc4OC)c(=O)c3c2)c1", "> 100 µM (inactive)"],
  ["Cc1nc2ccc(C(F)(F)F)cc2nc1Nc1ccc(Cl)c(Cl)c1", "12.8 µM (inactive)"],
  ["COC(=O)CCc1cc(O)c2c(c1)C(C(=O)OC)C(c1ccc(O)c(O)c1)O2 (stereo not given)", "> 48.2 µM (inactive)"],
  ["COc1cc(/C=C2/C(=O)NC(Cc3cc(OC)c(OC)c(C)c3OC)C(=O)N2Cc2ccccc2)c(OC)c(C)c1OC (stereo not given)", "61.5 µM (inactive)"],
  ["COc1ccc(CCN2C(=O)C(=O)C(C(=O)c3ccccc3)C2c2ccccc2)cc1OC (stereo not given)", "> 100 µM (inactive)"],
  ["O=C(O)C(Cc1cccs1)C(=O)O", "> 100 µM (inactive)"],
  ["CCOC(=O)C(SCCO)C(C(=O)OCC)n1ccc(=O)[nH]c1=O (stereo not given)", "> 63.7 µM (inactive)"],
  ["CC1=C(C(=O)Nc2ccccc2C)C(c2ccc(Cl)c(Cl)c2)C(C(=O)Nc2ccccc2C)=C(C)N1", "19.9 µM (inactive)"],
  ["CN=C(n1ccnc1)n1ccnc1", "> 100 µM (inactive)"],
  ["CCn1c(SCC(=O)N/N=C/c2ccccc2)nc2ccccc2c1=O", "21.8 µM (inactive)"],
  ["CCCN1C(=O)CCC2=C1CCc1c2ccc(Cl)c1Cl", "39.9 µM (inactive)"],
  ["CC(C)[Si]1(C(C)C)OCC2OC(n3c(C(=O)c4ccccc4)cc(=O)[nH]c3=O)CC2O[Si](C(C)C)(C(C)C)O1 (stereo not given)", "2.34 µM (inactive)"],
  ["Cc1c(/N=N/c2ccc(Cl)cc2)c(C)n(C2OC(CO)C(O)C(O)C2O)c(=S)c1C#N (stereo not given)", "24.2 µM (inactive)"],
  ["CC(=O)n1nnc2ccc([N+](=O)[O-])cc21", "> 100 µM (inactive)"]
]}

====

Catalogue of GI50 values
# Test system: HOP-18
# procedure.summary: NCI tumour cell line growth inhibition, 48 h
Calls of active or inactive are those of the source. No stated cut-off is given here; in the data, active = GI50 up to about 1.1 µM and inactive = higher.

{"columns": ["compound", "assay.target", "GI50"],
 "data": [
  ["CN[C@@H](C)[C@@H](NC)c1ccccc1", "HOP-18", "> 100 µM (inactive)"],
  ["CC1(C)N=C(N)N=C(N)N1c1ccc(CCCCc2ccc(S(=O)(=O)F)cc2Cl)c(Cl)c1", "HOP-18", "53.7 µM (inactive)"],
  ["CC(=O)OC(C)C(=O)C1c2cccc(O)c2C(=O)c2c(O)cc(C)cc21 (stereo unspecified)", "HOP-18", "1.12 µM (inactive)"],
  ["NC(CCCC(N)P(=O)(O)c1ccccc1)P(=O)(O)c1ccccc1 (stereo unspecified)", "HOP-18", "> 261 µM (inactive)"],
  ["CC(C)(C)c1cc(C(P(=O)(O)O)P(=O)(O)O)cc(C(C)(C)C)c1O", "HOP-18", "> 100 µM (inactive)"],
  ["CC1=C(C(=O)Nc2ccccc2C)C(c2ccc(Cl)c(Cl)c2)C(C(=O)Nc2ccccc2C)=C(C)N1", "HOP-18", "22.9 µM (inactive)"],
  ["COc1ccc(C(c2ccc(C(C)C)cc(=O)c2O)c2c(O)cc3oc(-c4ccccc4)cc(=O)c3c2O)cc1 (stereo unspecified)", "HOP-18", "17.3 µM (inactive)"],
  ["CCOc1ccc2c(c1)[n+]([O-])c(-c1nc3ccccc3s1)c(N)[n+]2[O-]", "HOP-18", "15.4 µM (inactive)"],
  ["COc1cccc(/C=C/C(=O)c2sc(C(N)=S)nc2C)c1O", "HOP-18", "> 41.5 µM (inactive)"],
  ["CCNCCCCNCC", "HOP-18", "> 37.5 µM (inactive)"],
  ["Cc1cccc(NC(=O)C(=O)C2C(=O)NC(=O)NC2=O)c1C", "HOP-18", "> 100 µM (inactive)"],
  ["CC(=O)OC12C=CC(=O)N1c1ccccc1C(=O)O2 (stereo unspecified)", "HOP-18", "> 100 µM (inactive)"],
  ["C[C@H]1COC(c2ccccn2)=N1", "HOP-18", "> 100 µM (inactive)"],
  ["CCCc1[nH]c(SCCCCCCCCSc2nc(-c3ccc(F)cc3)c(CCC)[nH]2)nc1-c1ccc(F)cc1", "HOP-18", "6.41 µM (inactive)"],
  ["Cc1ccccc1-c1c(N)nc(NC#N)nc1C(=O)Nc1ccccc1", "HOP-18", "> 100 µM (inactive)"],
  ["Cc1ccc(C2[C@H]3C(=O)N(c4ccc(Cc5ccc(N6C(=O)[C@@H]7ON(c8ccccc8)C(c8ccc(C)cc8)[C@@H]7C6=O)cc5)cc4)C(=O)[C@H]3ON2c2ccccc2)cc1 (stereo partly specified)", "HOP-18", "> 100 µM (inactive)"],
  ["CC(C)C1CCC/C=C/C=C/C=C/C=C/C(OC2OC(C)C(O)C(N)C2O)CC2OC(O)(CC(O)CC(O)C(O)CCC(=O)O1)CC(O)C2C(=O)O (stereo unspecified)", "HOP-18", "> 52.5 µM (inactive)"],
  ["COC1(OC)C(N(C)C)=C(Cl)C(=O)/C1=C/C=O", "HOP-18", "> 100 µM (inactive)"],
  ["CCC1(CN(C)C)CC/C(=C\\c2ccc3c(c2)OCO3)C1=O (stereo unspecified)", "HOP-18", "> 100 µM (inactive)"],
  ["N#Cc1ccccc1C(Cl)(Cl)c1cnccn1", "HOP-18", "> 100 µM (inactive)"],
  ["Cc1ccc2oc(=O)c(-c3ccccc3)nc2c1", "HOP-18", "34.2 µM (inactive)"]
]}

====

# System: RPMI-8226
# procedure.summary: NCI tumour cell line growth inhibition, 48 h
Activity calls are given as the source filed them. No stated cut-off is given here; in the data, active = GI50 up to about 1.1 µM and inactive = higher.
Outcomes: active, inactive

{"columns": ["compound", "group"],
 "data": [
  ["CC(ON1[C@](C)(c2ccccc2)CC[C@@]1(C)c1ccccc1)c1ccccc1 (stereo partly specified)", "inactive"],
  ["CN[C@@H](C)[C@@H](NC)c1ccccc1", "inactive"],
  ["COc1ccc2c(=O)cc(-c3ccncc3)oc2c1OC", "inactive"],
  ["Nc1ccn(C2(CO)C=C(CO)C(O)C2O)c(=O)n1 (stereo unspecified)", "inactive"],
  ["O=c1cc(NCc2ccncc2)[nH]c(=O)[nH]1", "inactive"],
  ["C/C(=N\\Nc1nc2ccccc2s1)c1ncccn1", "active"]
]}
